# Test system: SPC-A-1, NCI-H520, A549 and A549/Taxol cell lines
# assay: MTS cytotoxicity assay, four tested lung cancer cell lines together
# Assay type: cell-based, human
# run parameters: Homo sapiens
measurement kind: IC50

item smiles: CC(=O)OC(C)(C)/C=C/C(=O)[C@](C)(O)[C@H]1[C@H](O)C[C@@]2(C)[C@@H]3CC=C4[C@@H](C=C(O)C(=O)C4(C)C)[C@]3(C)C(=O)C[C@]12C
tested target: SPC-A-1, NCI-H520, A549 and A549/Taxol cell lines
experimental result: ≤ 30 nM

###

# System: paclitaxel-resistant A549 (A549/Taxol) cells
# assay: MTS cytotoxicity assay, A549/Taxol
# Format: cell-based, human
# run parameters: Table 5, A549/Taxol; listed as Cucurbitacin E; read-out: IC50
measurement kind: IC50

item smiles: CC(=O)OC(C)(C)/C=C/C(=O)[C@](C)(O)[C@H]1[C@H](O)C[C@@]2(C)[C@@H]3CC=C4[C@@H](C=C(O)C(=O)C4(C)C)[C@]3(C)C(=O)C[C@]12C
experimental result: ≤ 20 nM

###

// pIC50 lookup, one value per entry
# System: human lung adenocarcinoma SPC-A-1 cells
# assay: MTS cytotoxicity assay, SPC-A-1
# Format: cell-based
# run parameters: Table 5, SPC-A-1; read-out: IC50
# Protocol: It had better inhibition against lung cancer cell lines than against other cancer cell lines (Table 1). Thus, the next bioactivity-guided separations were conducted according to the cytotoxicities of the fractions against lung cancer cell lines (A-549, NCI-H520, and SPC-A-1), as well as normal BEAS-2B cells and paclitaxel-resistant lung cancer A549/Taxol cells. The cytotoxicity activities were evaluated by MTS assay as previously described.
pIC50: −log10 of the molar value.

molecule: CC(=O)OC(C)(C)/C=C/C(=O)[C@](C)(O)[C@H]1[C@H](O)C[C@@]2(C)[C@@H]3CC=C4[C@@H](C=C(O)C(=O)C4(C)C)[C@]3(C)C(=O)C[C@]12C [Compound 3, cucurbitacin E]
tested target: human lung adenocarcinoma SPC-A-1 cells
pIC50: 8.30
--
molecule: N.N.[Cl][Pt][Cl] [Cisplatin]
tested target: human lung adenocarcinoma SPC-A-1 cells
pIC50: 4.67
